# reported IC50; entries follow
TARGET UNDER TEST: Recombinant human p38α (Homo sapiens)
Construct: His; made in house
Sequence (Q16539 whole entry): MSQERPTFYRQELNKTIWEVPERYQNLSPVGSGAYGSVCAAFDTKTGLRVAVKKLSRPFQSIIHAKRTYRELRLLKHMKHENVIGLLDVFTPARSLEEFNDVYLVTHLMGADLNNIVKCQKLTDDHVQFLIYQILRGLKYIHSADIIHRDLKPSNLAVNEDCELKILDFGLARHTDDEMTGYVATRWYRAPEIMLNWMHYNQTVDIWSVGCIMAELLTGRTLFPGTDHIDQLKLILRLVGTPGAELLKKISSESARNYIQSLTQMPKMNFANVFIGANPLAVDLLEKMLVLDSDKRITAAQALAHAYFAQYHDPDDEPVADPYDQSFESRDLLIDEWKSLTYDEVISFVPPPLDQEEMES
MEASUREMENT DESCRIPTION: Fluorescence anisotropy kinase binding assay (standard and low volume)
EXPERIMENTAL CONDITIONS: no IC50 at a concentration of less than 16 uM; read-out: IC50, fluorescence anisotropy kinase binding assay

{"COMPOUND STRUCTURE STRING": "CSc1nc(Cl)c2ccc(=O)n(-c3c(F)cccc3F)c2n1", "TARGET UNDER TEST": "Recombinant human p38α (Homo sapiens)", "PROPERTY LABEL": "IC50", "RESULT": "≥ 16 µM"}

Print Recombinant human p38α (Homo sapiens) IC50 for Cc1ccc(NC(=O)c2cccs2)cc1-c1nc(NC2CC(C)(C)NC(C)(C)C2)nc2c1ccc(=O)n2-c1c(F)cccc1F . ≥ 16 µM

// output IC50; input O=C(O)c1cccc(-c2nc(NC(CO)CO)nc3c2ccc(=O)n3-c2ccc(F)cc2F)c1 ; system Recombinant human p38α (Homo sapiens) ≥ 16 µM
